# Test system: K562
# method.description: NCI tumour cell line growth inhibition, 48 h
Activity calls are given as the source filed them. No stated cut-off is given here; in the data, active = GI50 up to about 1.1 µM and inactive = higher.
Labels: true (1) = active, false (0) = inactive

[[record]]
compound = "CCOC(=O)C1(C(=O)OCC)C(C(C)(C)C)=C(C)c2ccccc21"
category = "false (0)"

[[record]]
compound = "C=C(C)COC(=O)COCC(=O)OCC(=C)C"
category = "false (0)"

[[record]]
compound = "O=C(OCC1OC2OC(c3ccccc3)(n3ccc4c([N+](=O)[O-])ccnc43)OC2C1OC(=O)c1ccccc1)c1ccccc1 (stereo unspecified)"
category = "false (0)"

[[record]]
compound = "Nc1ncnc2c1ncn2[C@@H]1C[C@@H]1CO"
category = "false (0)"

[[record]]
compound = "C/C(O)=C/C(=O)c1[nH]c(C(=O)O)cc1C1CCN(Cc2ccccc2)C1=O (stereo unspecified)"
category = "false (0)"

[[record]]
compound = "COc1ccc(OC)c2c3c([nH]c12)C(=O)Nc1nc(N)nc(N)c1C3"
category = "true (1)"

[[record]]
compound = "CC[C@@]1(OC(=O)C(N)CCC(=O)O)C(=O)OCc2c1cc1n(c2=O)Cc2cc3ccccc3nc2-1 (stereo partly specified)"
category = "true (1)"

[[record]]
compound = "CCOC(=O)c1nnsc1NC(=O)Nc1ccc(Cc2ccc(NC(=O)Nc3snnc3C(=O)OCC)cc2)cc1"
category = "false (0)"

[[record]]
compound = "O=c1c(F)cn(Cc2c(Cl)cccc2Cl)c(=O)n1Cc1c(Cl)cccc1Cl"
category = "false (0)"

[[record]]
compound = "COC(=O)C(CCSC)NC(=O)Cc1ccc(C(=O)c2ccccc2)cc1 (stereo unspecified)"
category = "false (0)"

[[record]]
compound = "CC1(C)O[C@H](C(=O)O)[C@@H](C(=O)O)O1"
category = "false (0)"

[[record]]
compound = "[N-]=[N+]=C1C(=O)C2CC3CC1CC2C3 (stereo unspecified)"
category = "false (0)"

[[record]]
compound = "O[C@H]1[C@H](O)[C@@H](O)[C@@]2(O)C[C@@H](O)[C@@H]1N2"
category = "false (0)"

[[record]]
compound = "Cn1cnc([N+](=O)[O-])c1[Se]c1ncnc2nc[nH]c12"
category = "false (0)"

[[record]]
compound = "CC(C)(C)c1cc(C2c3cc4c(cc3OC(O)(CO)C2C(=O)O)OCO4)cc(C(C)(C)C)c1O.CC(C)(C)c1cc(C2c3cc4c(cc3OC3(O)COC(=O)C23)OCO4)cc(C(C)(C)C)c1O (stereo unspecified)"
category = "false (0)"

[[record]]
compound = "COCN(CCC1=CCCCC1)C(=O)OC"
category = "false (0)"

[[record]]
compound = "O=C1C=C2SC3C[C@@]24CC1(O)[N+]1=c2c4c(c(O)c4c2=C(C=N4)CC1)N3"
category = "true (1)"

[[record]]
compound = "C/C(=N\\Nc1nc2ccccc2o1)c1cc2ccccc2cn1"
category = "true (1)"

[[record]]
compound = "CC1=CC2=C(C=O)C(=O)[C@](C)(O)[C@@H](O)C2=CO1"
category = "false (0)"

[[record]]
compound = "CC(C)/C(Cl)=N\\OC(=O)Nc1ccccc1F"
category = "false (0)"

[[record]]
compound = "Nc1ccc(-c2nc3ccccc3s2)cc1Br"
category = "false (0)"

[[record]]
compound = "CCN(CC)CC1CCCCN1CC(=O)N1CC(C)C(=O)Nc2ccccc21 (stereo unspecified)"
category = "false (0)"

[[record]]
compound = "Cc1ccc(C2=NN=C3C(c4ccccc4)=Nc4ccccc4N3C2)cc1"
category = "false (0)"

[[record]]
compound = "CCCCCCCCCCCC(=O)NCc1ccc(OC(=O)CCCCCCCCCCC)c(OC)c1"
category = "false (0)"

[[record]]
compound = "C(#C[C@@]12CCC[C@@H]1N(Cc1ccccc1)CO2)c1ccc2c(c1)OCO2"
category = "false (0)"

[[record]]
compound = "N#Cc1c(N)c(C#N)c2c(c1-c1ccc(Cl)cc1)COc1ccccc1-2"
category = "false (0)"

[[record]]
compound = "CSC(=Nc1nnc(-c2ccc([N+](=O)[O-])cc2)s1)SC"
category = "false (0)"

[[record]]
compound = "CC1=CC2CC(C)=C(CC[C@]3(C)CC[C@H]([C@@H](C)C(=O)O)OO3)C(C)(C)C2CC1 (stereo partly specified)"
category = "true (1)"

[[record]]
compound = "CCN(CC)c1ccc2cc(-c3csc(-c4ccc(N(C)C)cc4)n3)c(=O)oc2c1"
category = "false (0)"

[[record]]
compound = "C=C1C(C2(C)C(OC(C)=O)CC(=O)OC(C)(COC(C)=O)C2CC(=O)OC)C(OC=O)C(OC(=O)C(O)C(C)CC)C2(C)C(c3ccoc3)CC(=O)C12O (stereo unspecified)"
category = "false (0)"

[[record]]
compound = "CN(C)/C=C/C(=CC=[N+](C)C)/C=C/N(C)C.[O-][Cl+3]([O-])([O-])[O-]"
category = "false (0)"

